- assay.summary: log P by HPLC
- Assay type: physicochemical
- condition.description: EEC directive 79/831 Annex V. A8 by HPLC (gradient method, acetonitrile/0.1% aqueous phosphoric acid)
measurement.type: logP
Just the number, please.

Some compounds with known logP results, for comparison:
INSERT INTO results (compound, reported) VALUES
  ('Cc1nc2nc(Cl)c(-c3c(F)cccc3Cl)c(NCC3CC3)n2n1', 2.95),
  ('Cc1cccc(Nc2c(-c3ccc(F)cc3F)c(Cl)nc3nc(C)nn23)c1', 3),
  ('Cc1nc2nc(Cl)c(-c3c(F)cccc3F)c(NOCc3ccccc3Cl)n2n1', 3.13),
  ('Cc1nc2nc(Cl)c(-c3ccccc3F)c(NOC3CCCCO3)n2n1 (stereo not drawn)', 2.59),
  ('Cc1nc2nc(Cl)c(-c3c(F)cccc3F)c(NCC#N)n2n1', 1.91),
  ('Cc1nc2nc(Cl)c(-c3c(F)cc(F)cc3F)c(NC(C)C(C)C)n2n1 (stereo not drawn) [compound 506]', 3.35),
  ('CCOC(=O)CN(CC)c1c(-c2ccc(F)cc2F)c(Cl)nc2nc(C)nn12', 3.04),
  ('CC(C)Nc1c(-c2ccc(F)cc2Cl)c(Cl)nc2nc(C3CC3)nn12', 3.5),
  ('Cc1nc2nc(Cl)c(-c3c(F)cccc3F)c(N3CCCC(O)C3)n2n1 (stereo not drawn)', 2.03),
  ('Fc1cc(F)c(-c2c(Cl)nc3nc(C4CC4)nn3c2NC2CCCC2)c(F)c1', 3.9);

What value of logP has been recorded for this entry: Cc1nc2nc(Cl)c(-c3ccc(F)cc3F)c(N3CC(C)CC(C)C3)n2n1 (stereo not drawn)
4.16

What about this compound? Cc1nc2nc(Cl)c(-c3c(F)cccc3F)c(N3CCCC(C)C3)n2n1 (stereo not drawn)
3.63

Same for Cc1nc2nc(Cl)c(-c3c(F)cccc3F)c(NOCc3cc(Cl)cc(Cl)c3)n2n1
3.75

Let us now turn to CCOC(=O)CN(C)c1c(-c2c(F)cccc2Cl)c(Cl)nc2nc(C)nn12
2.48

====

- assay.summary: log P by HPLC
- Assay type: physicochemical
- condition.description: EEC directive 79/831 Annex V. A8 by HPLC (gradient method, acetonitrile/0.1% aqueous phosphoric acid)
Reported values of logP for individual entries
Lab note: record just the number, no unit beside it.

Worked examples follow.
INSERT INTO assay_data (compound, measurement_type, reported) VALUES
  ('CC1CCN(c2c(-c3c(F)cc(F)cc3F)c(Cl)nc3nc(C4CC4)nn23)CC1 [compound 473]', 'logP', 4.66),
  ('Cc1nc2nc(Cl)c(-c3c(F)cccc3F)c(N(C)CC3OCCO3)n2n1 [compound 332]', 'logP', 2.43),
  ('Clc1ccccc1-c1c(Cl)nc2nc(C3CC3)nn2c1N1CCCCC1 [compound 493]', 'logP', 4.27),
  ('Cc1nc2nc(F)c(-c3ccccc3Cl)c(NC(C)C(F)(F)F)n2n1 (centres unmarked) [compound 438]', 'logP', 2.97);

Fill in: logP of COC(CN(C)c1c(-c2c(F)cccc2F)c(Cl)nc2nc(C)nn12)OC [compound 334] is ___
2.55

// repeat for CCCN(CCOC)c1c(-c2ccccc2Cl)c(Cl)nc2nc(C)nn12 [compound 416] and report
3.36
